# Test system: P. falciparum stage V gametocytes
# Parameters: BacTiter-Glo ATP luminescence viability of purified stage V gametocytes in 384-well plates, per cent inhibition versus DMSO
# cond: 48 h, 5 µM; inhibitor
Screen size: about 13,000 compounds; about 3,200 (25%) showed an effect of 50% or more. Some of the results follow.

{"compound": "CC(C)c1cc(C(=O)N[C@@H](Cc2ccccc2)[C@H](O)CNC2CCCCC2)cc(N2CCCC2=O)c1", "assayed.system": "P. falciparum stage V gametocytes", "% Inhibition": "41.96%"}
{"compound": "COc1cc(Cc2cnc(N)nc2N)cc(OCCCc2cc(OCc3ccccc3)no2)c1OC", "assayed.system": "P. falciparum stage V gametocytes", "% Inhibition": "0.05649%"}
{"compound": "O=C(O)CCSc1ncnc2nc[nH]c12", "assayed.system": "P. falciparum stage V gametocytes", "% Inhibition": "-3.326%"}
{"compound": "COc1cccc(C23N=C(Nc4nc5ccccc5[nH]4)NC2(c2cccc(OC)c2)NC(Nc2nc4ccccc4[nH]2)=N3)c1 (centres unmarked)", "assayed.system": "P. falciparum stage V gametocytes", "% Inhibition": "19.76%"}
{"compound": "Fc1cccc(COc2ccc(-n3ccc4c(NCCCn5ccnc5)ncnc43)cc2Cl)n1", "assayed.system": "P. falciparum stage V gametocytes", "% Inhibition": "-5.729%"}
{"compound": "N=C(NCCCc1ccccc1)c1cccc(C(=N)NCCCc2ccccc2)n1", "assayed.system": "P. falciparum stage V gametocytes", "% Inhibition": "100.2%"}
{"compound": "Oc1ccc(CN2CCC(N3CCN(CCc4ccccc4)CC3)C(O)C2)cc1Cl (centres unmarked)", "assayed.system": "P. falciparum stage V gametocytes", "% Inhibition": "21.13%"}
{"compound": "N=C(NCC1CC1c1ccccc1)c1cccc(C(=N)NCC2CC2c2ccccc2)n1 (centres unmarked)", "assayed.system": "P. falciparum stage V gametocytes", "% Inhibition": "113.7%"}

Each recorded value in this set is attributed to paper PMC4552634.
